Quick reference: 2wp2 pool 2 of the listed items.
# Test system: respiratory syncytial virus F protein
# measurement_notes: Immunization studies, anti-RSV-F titers
# Type: in vivo
# condition_info: anti-RSV-F titer; BALB/c; course A = days 0 & 21; 2 weeks after second dose; liposomes with 0.1 μg vA317 replicon (naked: 1 μg)
# Procedure: BALB/c were immunized with liposomes comprising DSPC, cholesterol, and various lipids of the invention (or, for comparison, the cationic lipid 1,2-dilinoleyloxy-N,N-dimethyl-3-aminopropane or ‘DLinDMA’). The liposomes encapsulated 0.1 μg of “vA317” self-replicating RNA replicon which encodes respiratory syncytial virus F protein (see WO2012/031043). […] Immune responses were assessed 2 weeks after each dose (2wp1, 2wp2), and in some cases also at 4 weeks after the second dose (4wp2).
reported_metric: 2wp2 pool 2

line_notation	result_number
CCCCC/C=C\C/C=C\CCCCCCCCOc1cc(CCCOC(=O)CCN(C)C)cc(OCCCCCCCC/C=C\C/C=C\CCCCC)c1	15304
CCCCC/C=C\C/C=C\CCCCCCCCNC(=O)c1cc(COC(=O)CCCN(C)C)cc(C(=O)NCCCCCCCC/C=C\C/C=C\CCCCC)c1	75
CCCCC/C=C\C/C=C\CCCCCCCC(=O)OCc1cc(COC(=O)CCCCCCC/C=C\C/C=C\CCCCC)cc(COC(=O)OCCN(C)C)c1	20124

====

# measurement_notes: Particle size of lipid nanoparticle (dynamic light scattering, Malvern Zetasizer)
# Assay type: physicochemical
# condition_info: FVII siRNA LNP; Chol/DSPC/PEG-DMG, molar ratio 45/44/9/2; Z-average
# Excerpt: The lipid nanoparticles have a size of about 1 to about 2,500 nm, about 1 to about 1,500 nm, about 1 to about 1,000 nm, in a sub-embodiment about 50 to about 600 nm, in a sub-embodiment about 50 to about 400 nm, in a sub-embodiment about 50 to about 250 nm, and in a sub-embodiment about 50 to about 150 nm. Unless indicated otherwise, all sizes referred to herein are the average sizes (diameters) of the fully formed nanoparticle, as measured by dynamic light scattering on a Malvern Zetasizer. […]
Returns 1 (yes) if the recorded Size (nm) is greater than or equal to 100 nm, and 0 (no) otherwise.

compound	assigned_label
CCCCCCCCCCOC(=O)CCCCCCCOc1cc(CN(C)C)cc(OCCCCCCCC(=O)OCCCCCCCCCC)c1	1 (yes)
CCCCCCCCOC(CCCOc1cc(CN(C)C)cc(OCCCC(OCCCCCCCC)OCCCCCCCC)c1)OCCCCCCCC	0 (no)
CCCCCCCC(=O)OCC(CCOc1cc(CN(C)C)cc(OCCC(COC(=O)CCCCCCC)OC(=O)CCCCCCC)c1)OC(=O)CCCCCCC (stereo not drawn)	1 (yes)
CCCCC/C=C\C/C=C\CCCCCCCC(=O)Oc1cc(COC(=O)CCN(C)C)cc(OC(=O)CCCCCCC/C=C\C/C=C\CCCCC)c1	1 (yes)

====

# measurement_notes: Polydispersity index (PDI) of lipid nanoparticle (dynamic light scattering)
# Type: physicochemical
# condition_info: FVII siRNA LNP; Chol/DSPC/S010, molar ratio 45/44/9/2
Quick reference: PDI of the listed items.
reported_metric: PDI

compound	result_number
CCCCCCCC/C=C\CCCCCCCCOc1cc(CN(C)C)cc(OCCCCCCCC/C=C\CCCCCCCC)c1	0.124
CCCCCCCCCC(=O)OCCCCCCCC(=O)OCc1cc(COC(=O)CCCCCCCOC(=O)CCCCCCCCC)cc(CN(C)C)c1	0.005
CCCCCCCC(=O)OCC(CCOc1cc(CN(C)C)cc(OCCC(COC(=O)CCCCCCC)OC(=O)CCCCCCC)c1)OC(=O)CCCCCCC (stereo not shown)	0.053
CCCCCCCCCCCCOC(=O)CCCCCOc1cc(CN(C)C)cc(OCCCCCC(=O)OCCCCCCCCCCCC)c1	0.073

====

# measurement_notes: Measurement of mRNA encapsulation (Quant-iT Ribogreen)
# Assay type: physicochemical
# condition_info: leptin mRNA in lipid nanoparticles (cationic lipid, DSPC, cholesterol, stealth lipid)

compound	% encapsulation (%)
CCCCCCCCCCCCOC(=O)CCCCCOc1cc(CN(C)C)cc(OCCCCCC(=O)OCCCCCCCCCCCC)c1 [Example 90]	80.9
CCCCCCCCCOC(=O)CCCCCCC(=O)OCc1cc(COC(=O)CCCCCCC(=O)OCCCCCCCCC)cc(CN(C)C)c1 [Example 79]	91.6
CCCCCCCC(=O)OCCCCCCCCCCOC(=O)CCC(=O)OCc1cc(COC(=O)CCC(=O)OCCCCCCCCCCOC(=O)CCCCCCC)cc(CN(C)C)c1 [Example 78]	71.1
CCCCCCCCCCOC(=O)CCCCCCCOc1cc(CN(C)C)cc(OCCCCCCCC(=O)OCCCCCCCCCC)c1 [Example 57]	96.0

====

# System: respiratory syncytial virus F protein
# measurement_notes: Immunization studies, anti-RSV-F titers
# Type: in vivo
# condition_info: anti-RSV-F titer; BALB/c; course A = days 0 & 21; 2 weeks after first dose; liposomes with 0.1 μg vA317 replicon (naked: 1 μg)

compound	target_or_test_system	2wp1 pool 2
CCCCC/C=C\C/C=C\CCCCCCCCOc1cc(COC(=O)OCCCN(C)C)cc(OCCCCCCCC/C=C\C/C=C\CCCCC)c1	respiratory syncytial virus F protein	494
CCCCC/C=C\C/C=C\CCCCCCCCNC(=O)c1cc(COC(=O)CCCN(C)C)cc(C(=O)NCCCCCCCC/C=C\C/C=C\CCCCC)c1	respiratory syncytial virus F protein	75
CCCCC/C=C\C/C=C\CCCCCCCC(=O)OCc1cc(COC(=O)CCCCCCC/C=C\C/C=C\CCCCC)cc(COC(=O)CCN(C)C)c1	respiratory syncytial virus F protein	3584
CCCCC/C=C\C/C=C\CCCCCCCCOc1cc(COC(=O)CCCN(C)C)cc(OCCCCCCCC/C=C\C/C=C\CCCCC)c1	respiratory syncytial virus F protein	620
CCCCC/C=C\C/C=C\CCCCCCCCOc1cc(C(=O)OCCCN(C)C)cc(OCCCCCCCC/C=C\C/C=C\CCCCC)n1	respiratory syncytial virus F protein	1883
CCCCCCCC/C=C\CCCCCCCCOc1cc(OCCCCCCCC/C=C\CCCCCCCC)cc(C2OCC(CN3CCCC3)O2)c1 (stereo not drawn)	respiratory syncytial virus F protein	1352

====

# Tested on: respiratory syncytial virus F protein
# measurement_notes: Immunization studies, anti-RSV-F titers
# Format: in vivo
# condition_info: anti-RSV-F titer; BALB/c; course A = days 0 & 21; 2 weeks after first dose; liposomes with 0.1 μg vA317 replicon (naked: 1 μg)

line_notation	2wp1 pool 2
CCCCC/C=C\C/C=C\CCCCCCCCOc1cc(CN(C)C)cc(OCCCCCCCC/C=C\C/C=C\CCCCC)c1	259
CCCCC/C=C\C/C=C\CCCCCCCCOc1cc(CCCOC(=O)CCN(C)C)cc(OCCCCCCCC/C=C\C/C=C\CCCCC)c1	1553
CCCCC/C=C\C/C=C\CCCCCCCC(=O)OCc1cc(COC(=O)CCCCCCC/C=C\C/C=C\CCCCC)cc(COC(=O)OCCN(C)C)c1	3110
CCCCC/C=C\C/C=C\CCCCCCCC(=O)OCc1cc(COC(=O)CCCCCCC/C=C\C/C=C\CCCCC)cc(COC(=O)OCCCN(CC)CC)c1	4481
CCCCC/C=C\C/C=C\CCCCCCCC(=O)Oc1cc(COC(=O)CCN(C)C)cc(OC(=O)CCCCCCC/C=C\C/C=C\CCCCC)c1	4

====

# measurement_notes: pKa measurement of cationic lipid (TNS fluorescence)
# Assay type: physicochemical
# condition_info: probe TNS; pKa of the cationic lipid of formula (I); Table 4; read-out: pKa
reported_metric: pKa

line_notation	result
CCCCCCCCC(CCCCCCCC)CC(=O)OCCCCOc1cc(CN(C)C)cc(OCCCCOC(=O)CC(CCCCCCCC)CCCCCCCC)c1	5.67
CCCCCCC(CCCCCC)CCCCCC(=O)OCc1cc(COC(=O)CCCCCC(CCCCCC)CCCCCC)cc(CN(C)C)c1	5.67
CCCCC/C=C\C/C=C\CCCCCCCC(=O)OCCCCOc1cc(CCCN2CCOCC2)cc(OCCCCOC(=O)CCCCCCC/C=C\C/C=C\CCCCC)c1	5.06

====

Quick reference: KD FVII 0.03 mg/kg of the listed items.
# System: plasma Factor VII enzyme activity
# measurement_notes: Mouse Factor VII dosing / Factor VII Activity Assay
# Type: in vivo
# condition_info: percent knock down of plasma Factor VII activity; CD-1 mice, single IV dose 0.03 mg/kg, 48 h; LNP Chol/DSPC/S010 45/44/9/2

line_notation	KD FVII 0.03 mg/kg [%]
CCCCCCCC(=O)OC[C@@H](CCOc1cc(CN(C)C)cc(OCC[C@H](COC(=O)CCCCCCC)OC(=O)CCCCCCC)c1)OC(=O)CCCCCCC	90
CCCCC/C=C\C/C=C\CCCCCCCC(=O)OCCOCCOc1cc(CN(CC)CC)cc(OCCOCCOC(=O)CCCCCCC/C=C\C/C=C\CCCCC)c1	15.25
CCCCCCCC(=O)OCCCCCCCCCCOc1cc(CN(CC)CC)cc(OCCCCCCCCCCOC(=O)CCCCCCC)c1OCCCCCCCCCCOC(=O)CCCCCCC	26.9
